EXPERIMENTAL_PROTOCOL: refractive index (Na D-line) (dimensionless)
EXPERIMENTAL_CONDITIONS: 313.15 K; 101.33 kPa; Liquid; Standard Abbe refractometry
Task for the reader: assign each of the following molecules its reported refractive index.
No unit in the answer, please; the number alone is enough.

Q: Please look up its refractive index: CCCCCCn1cc[n+](C)c1.F[B-](F)(F)F [1-hexyl-3-methylimidazolium tetrafluoroborate]
Result: 1.42752

Q: Please look up its refractive index: C1COCCO1
Result: 1.41236

Q: Please look up its refractive index: C1CCOC1 [tetrahydrofuran]
Result: 1.39623

Q: Please look up its refractive index: CCCCCCCC[n+]1ccn(C)c1.F[B-](F)(F)F [1-methyl-3-octylimidazolium tetrafluoroborate]
Result: 1.42772

====

EXPERIMENTAL_PROTOCOL: refractive index (Na D-line) (dimensionless)
EXPERIMENTAL_CONDITIONS: 323.15 K; 101.33 kPa; Liquid; Standard Abbe refractometry
ASSAY_METRIC: refractive index
No unit in the answer, please; the number alone is enough.

Q: Please look up its refractive index: C1COCCO1
Result: 1.40749

Q: Please look up its refractive index: C1CCOC1 [tetrahydrofuran]
Result: 1.39083

Q: Please look up its refractive index: CCCCCCn1cc[n+](C)c1.F[B-](F)(F)F [1-hexyl-3-methylimidazolium tetrafluoroborate]
Result: 1.42474

Q: Please look up its refractive index: CCCCCCCC[n+]1ccn(C)c1.F[B-](F)(F)F [1-methyl-3-octylimidazolium tetrafluoroborate]
Result: 1.42696

====

Task for the reader: assign each of the following compounds its reported speed of sound.
EXPERIMENTAL_CONDITIONS: 293.15 K; 101.33 kPa; Liquid; Sing-around technique in a fixed-path interferometer
± gives the expanded uncertainty stated by the source.

Q: Please look up its speed of sound: C1CCOC1 [tetrahydrofuran]
Result: 1304.6 ± 1.4 m/s

Q: Please look up its speed of sound: CCCCCCn1cc[n+](C)c1.F[B-](F)(F)F [1-hexyl-3-methylimidazolium tetrafluoroborate]
Result: 1509.3 ± 2.3 m/s

Q: Please look up its speed of sound: C1COCCO1 [1,4-dioxane]
Result: 1367.2 ± 1.2 m/s

Q: Please look up its speed of sound: CCCCCCCC[n+]1ccn(C)c1.F[B-](F)(F)F [1-methyl-3-octylimidazolium tetrafluoroborate]
Result: 1495.5 ± 2.3 m/s

====

EXPERIMENTAL_CONDITIONS: 308.15 K; 101.33 kPa; Liquid; Sing-around technique in a fixed-path interferometer
± gives the expanded uncertainty stated by the source.
ASSAY_METRIC: speed of sound
Express your answer as a number followed by its unit.

Q: Please look up its speed of sound: C1COCCO1
Result: 1301.1 ± 1.2 m/s

Q: Please look up its speed of sound: CCCCCCCC[n+]1ccn(C)c1.F[B-](F)(F)F [1-methyl-3-octylimidazolium tetrafluoroborate]
Result: 1453.9 ± 2.3 m/s

Q: Please look up its speed of sound: C1CCOC1 [tetrahydrofuran]
Result: 1232.5 ± 1.4 m/s

Q: Please look up its speed of sound: CCCCCCn1cc[n+](C)c1.F[B-](F)(F)F [1-hexyl-3-methylimidazolium tetrafluoroborate]
Result: 1472 ± 2.3 m/s

====

Task for the reader: assign each of the following compounds its reported mass density.
EXPERIMENTAL_CONDITIONS: 293.15 K; 101.33 kPa; Liquid; Vibrating tube method
Numbers only; they are read as kg/m3.

Q: Please look up its mass density: CCCCCCCC[n+]1ccn(C)c1.F[B-](F)(F)F [1-methyl-3-octylimidazolium tetrafluoroborate]
Result: 1100.59

Q: Please look up its mass density: C1COCCO1 [1,4-dioxane]
Result: 1033.5

Q: Please look up its mass density: CCCCCCn1cc[n+](C)c1.F[B-](F)(F)F [1-hexyl-3-methylimidazolium tetrafluoroborate]
Result: 1148.76

Q: Please look up its mass density: C1CCOC1 [tetrahydrofuran]
Result: 888.69

====

EXPERIMENTAL_PROTOCOL: refractive index (Na D-line) (dimensionless)
EXPERIMENTAL_CONDITIONS: 308.15 K; 101.33 kPa; Liquid; Standard Abbe refractometry
Task for the reader: assign each of the following compounds its reported refractive index.
No unit in the answer, please; the number alone is enough.

Q: Please look up its refractive index: CCCCCCCC[n+]1ccn(C)c1.F[B-](F)(F)F [1-methyl-3-octylimidazolium tetrafluoroborate]
Result: 1.42939

Q: Please look up its refractive index: C1COCCO1
Result: 1.4148

Q: Please look up its refractive index: C1CCOC1 [tetrahydrofuran]
Result: 1.39885

Q: Please look up its refractive index: CCCCCCn1cc[n+](C)c1.F[B-](F)(F)F [1-hexyl-3-methylimidazolium tetrafluoroborate]
Result: 1.4289

====

EXPERIMENTAL_CONDITIONS: 313.15 K; 101.33 kPa; Liquid; Sing-around technique in a fixed-path interferometer
Numbers after ± are expanded uncertainties.
Task for the reader: assign each of the following molecules its reported speed of sound.

Q: Please look up its speed of sound: C1CCOC1 [tetrahydrofuran]
Result: 1208.8 ± 1.4 m/s

Q: Please look up its speed of sound: CCCCCCn1cc[n+](C)c1.F[B-](F)(F)F [1-hexyl-3-methylimidazolium tetrafluoroborate]
Result: 1459.8 ± 2.3 m/s

Q: Please look up its speed of sound: CCCCCCCC[n+]1ccn(C)c1.F[B-](F)(F)F [1-methyl-3-octylimidazolium tetrafluoroborate]
Result: 1440.9 ± 2.3 m/s

Q: Please look up its speed of sound: C1COCCO1
Result: 1279.4 ± 1.2 m/s

====

EXPERIMENTAL_CONDITIONS: 323.15 K; 101.33 kPa; Liquid; Sing-around technique in a fixed-path interferometer
ASSAY_METRIC: speed of sound (m/s)
Numbers only; they are read as m/s.

Q: Please look up its speed of sound: C1COCCO1 [1,4-dioxane]
Result: 1236.3

Q: Please look up its speed of sound: C1CCOC1 [tetrahydrofuran]
Result: 1161.7

Q: Please look up its speed of sound: CCCCCCn1cc[n+](C)c1.F[B-](F)(F)F [1-hexyl-3-methylimidazolium tetrafluoroborate]
Result: 1435.7

Q: Please look up its speed of sound: CCCCCCCC[n+]1ccn(C)c1.F[B-](F)(F)F [1-methyl-3-octylimidazolium tetrafluoroborate]
Result: 1414.7

====

EXPERIMENTAL_CONDITIONS: 323.15 K; 101.33 kPa; Liquid; Vibrating tube method
Task for the reader: assign each of the following compounds its reported mass density.
Numbers only; they are read as kg/m3.

Q: Please look up its mass density: CCCCCCn1cc[n+](C)c1.F[B-](F)(F)F [1-hexyl-3-methylimidazolium tetrafluoroborate]
Result: 1126.89

Q: Please look up its mass density: C1CCOC1 [tetrahydrofuran]
Result: 855.29

Q: Please look up its mass density: CCCCCCCC[n+]1ccn(C)c1.F[B-](F)(F)F [1-methyl-3-octylimidazolium tetrafluoroborate]
Result: 1080.75

Q: Please look up its mass density: C1COCCO1
Result: 999.4

====

Task for the reader: assign each of the following compounds its reported refractive index.
EXPERIMENTAL_PROTOCOL: refractive index (Na D-line) (dimensionless)
EXPERIMENTAL_CONDITIONS: 298.15 K; 101.33 kPa; Liquid; Standard Abbe refractometry
No unit in the answer, please; the number alone is enough.

Q: Please look up its refractive index: CCCCCCn1cc[n+](C)c1.F[B-](F)(F)F [1-hexyl-3-methylimidazolium tetrafluoroborate]
Result: 1.43167

Q: Please look up its refractive index: CCCCCCCC[n+]1ccn(C)c1.F[B-](F)(F)F [1-methyl-3-octylimidazolium tetrafluoroborate]
Result: 1.43296

Q: Please look up its refractive index: C1CCOC1 [tetrahydrofuran]
Result: 1.4042

Q: Please look up its refractive index: C1COCCO1
Result: 1.41967

Values from the NIST ThermoML archive (doi:10.1016/j.jct.2013.11.027)
